All figures here come from ChEMBL document CHEMBL1155814.

- EXPERIMENTAL SYSTEM: Trace amine-associated receptor 1 (Homo sapiens) (UniProt Q96RJ0)
- Sequence (whole entry): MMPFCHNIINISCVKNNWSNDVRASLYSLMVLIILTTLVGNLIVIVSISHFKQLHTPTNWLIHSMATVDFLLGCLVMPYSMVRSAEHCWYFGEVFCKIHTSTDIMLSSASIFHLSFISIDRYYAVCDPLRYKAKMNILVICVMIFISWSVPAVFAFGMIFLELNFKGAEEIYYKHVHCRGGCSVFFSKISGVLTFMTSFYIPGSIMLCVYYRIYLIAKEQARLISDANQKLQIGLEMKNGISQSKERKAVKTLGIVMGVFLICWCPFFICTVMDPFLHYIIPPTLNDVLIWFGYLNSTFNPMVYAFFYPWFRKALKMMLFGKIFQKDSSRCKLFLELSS
- PROTOCOL TEXT: Agonist activity at human trace amine associated receptor 1 expressed in RD-HGA16 CHO-K1 cells coexpressed with Galpha16 protein assessed as internal calcium mobilization by calcium 3 assay relative to 2-phenylethanamine
- Assay type: functional, cell-based
METRIC: Emax (%)
# output: bare number, implied unit %

Request: Give Emax (Trace amine-associated receptor 1 (Homo sapiens) (UniProt Q96RJ0)) of the following compound: `C[C@@H](CN)c1ccccc1`
Response: 97

Request: Give Emax (Trace amine-associated receptor 1 (Homo sapiens) (UniProt Q96RJ0)) of the following compound: `NCCc1ccccc1I`
Response: 109

Request: Give Emax (Trace amine-associated receptor 1 (Homo sapiens) (UniProt Q96RJ0)) of the following compound: `COc1cc(CCN)c(OC)cc1Cl`
Response: 30

Request: Give Emax (Trace amine-associated receptor 1 (Homo sapiens) (UniProt Q96RJ0)) of the following compound: `NCCc1cccc(Cl)c1`
Response: 105

Request: Give Emax (Trace amine-associated receptor 1 (Homo sapiens) (UniProt Q96RJ0)) of the following compound: `NCCc1ccc(Cl)c(Cl)c1`
Response: 78

Request: Give Emax (Trace amine-associated receptor 1 (Homo sapiens) (UniProt Q96RJ0)) of the following compound: `NCCc1c(F)cccc1Cl`
Response: 94

Request: Give Emax (Trace amine-associated receptor 1 (Homo sapiens) (UniProt Q96RJ0)) of the following compound: `CNCCc1ccc(Br)cc1`
Response: 60

Request: Give Emax (Trace amine-associated receptor 1 (Homo sapiens) (UniProt Q96RJ0)) of the following compound: `CNCCc1ccccc1Cl`
Response: 70

Request: Give Emax (Trace amine-associated receptor 1 (Homo sapiens) (UniProt Q96RJ0)) of the following compound: `COc1cc(CCN)c(OC)cc1Br`
Response: 22

Request: Give Emax (Trace amine-associated receptor 1 (Homo sapiens) (UniProt Q96RJ0)) of the following compound: `CNCCc1cccc(Br)c1`
Response: 71

Request: Give Emax (Trace amine-associated receptor 1 (Homo sapiens) (UniProt Q96RJ0)) of the following compound: `C[C@@H](N)Cc1ccccc1`
Response: 64

Request: Give Emax (Trace amine-associated receptor 1 (Homo sapiens) (UniProt Q96RJ0)) of the following compound: N[C@@H]1C[C@H]1c1ccccc1 (relative stereo)
Response: 72
